Molecular target: human recombinant LPA1 expressed in CHO cells (Homo sapiens, UniProt Q92633)
Sequence (Q92633 whole entry): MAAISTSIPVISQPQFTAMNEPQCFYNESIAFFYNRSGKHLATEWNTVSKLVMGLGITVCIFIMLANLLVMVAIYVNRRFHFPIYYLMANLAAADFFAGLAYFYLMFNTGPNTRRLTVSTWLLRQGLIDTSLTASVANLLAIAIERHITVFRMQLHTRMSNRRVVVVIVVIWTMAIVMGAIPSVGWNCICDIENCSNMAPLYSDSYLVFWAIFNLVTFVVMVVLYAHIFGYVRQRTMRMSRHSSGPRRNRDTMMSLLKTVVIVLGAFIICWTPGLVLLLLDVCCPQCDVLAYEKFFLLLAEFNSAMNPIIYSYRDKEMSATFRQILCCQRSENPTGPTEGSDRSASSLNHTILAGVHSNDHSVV
Assay: FLIPR calcium mobilization assay, LPA1 antagonism in CHO-hLPA1 cells
Details: inhibition of LPA EC80 Ca2+ response, 30 min pre-incubation, expressed as range of activity
Consider the following molecules and their measured IC50 readings.

Sample records with IC50:
>>> measurement("Cc1nc(-c2onc(C)c2NS(=O)(=O)CC(C)c2ccccc2)ccc1NC(=O)[C@H]1CCCC[C@@H]1C(=O)O (mixture of isomers) [Compound 29]")
"< 50 nM"
>>> measurement("CCCCNc1cncc(Nc2c(C)noc2-c2ccc(NC(=O)[C@H]3CCCC[C@@H]3C(=O)O)c(C)n2)n1")
"250 to 600 nM"
>>> measurement("Cc1nc(-c2onc(C)c2Nc2cncc(CC(C)C)n2)ccc1NC(=O)[C@H]1CCCC[C@@H]1C(=O)O")
"50 to 250 nM"
>>> measurement("Cc1nc(-c2onc(C)c2NS(=O)(=O)CCCc2ccccc2)ccc1NC(=O)[C@H]1CCCC[C@@H]1C(=O)O")
"< 50 nM"
>>> measurement("Cc1nc(-c2onc(C)c2Nc2cncc(OC3CC(F)(F)C3)n2)ccc1NC(=O)[C@H]1CCCC[C@@H]1C(=O)O")
"50 to 250 nM"
>>> measurement("CCC[C@@H](C)OC(=O)Nc1c(-c2ccc(OC[C@H]3CCCC[C@@H]3C(=O)O)c(C)n2)nnn1C")
"< 50 nM"
>>> measurement("Cc1noc(-c2ccc(OC[C@H]3CCCC[C@@H]3C(=O)O)cc2)c1NC(=O)O[C@H](C)c1cccnc1")
"50 to 250 nM"
>>> measurement("CCOc1cncc(Nc2c(C)noc2-c2ccc(OC[C@H]3CCCC[C@@H]3C(=O)O)cn2)n1")
"< 50 nM"

stdin: Param readout = IC50; param system = human recombinant LPA1 expressed in CHO cells (Homo sapiens, UniProt Q92633); param query = `Cc1nc(-c2onc(C)c2NS(=O)(=O)c2ccccc2)ccc1OC[C@H]1CCCC[C@@H]1C(=O)O` ; response: value
stdout: 250 to 600 nM

stdin: Please tell me: IC50 of `Cc1nc(-c2onc(C)c2Nc2cncc(C(C)C)n2)ccc1NC(=O)[C@H]1CCCC[C@@H]1C(=O)O` , system human recombinant LPA1 expressed in CHO cells (Homo sapiens, UniProt Q92633)?
stdout: 50 to 250 nM

stdin: Identify the measured IC50 of `Cc1nc(-c2onc(C)c2Nc2cncc(-c3ccccn3)n2)ccc1NC(=O)[C@H]1CCCC[C@@H]1C(=O)O` for human recombinant LPA1 expressed in CHO cells (Homo sapiens, UniProt Q92633).
stdout: 50 to 250 nM

stdin: Provide the documented IC50 with human recombinant LPA1 expressed in CHO cells (Homo sapiens, UniProt Q92633) as the system for `CCC[C@@H](C)OC(=O)Nc1c(C)noc1-c1ccc(OC[C@H]2CCCC[C@@H]2C(=O)O)c(C)n1`
stdout: < 50 nM

stdin: Please tell me: IC50 of CC(C)Oc1cncc(Nc2c(-c3ccc(NC(=O)C4CCCCC4C(=O)O)cc3)nnn2C)n1 (racemic) , system human recombinant LPA1 expressed in CHO cells (Homo sapiens, UniProt Q92633)?
stdout: 50 to 250 nM

stdin: Which measured IC50 belongs to `Cc1nc(-c2onc(C)c2NS(=O)(=O)CCc2ccccc2)ccc1OC[C@H]1CCCC[C@@H]1C(=O)O` , tested on human recombinant LPA1 expressed in CHO cells (Homo sapiens, UniProt Q92633)?
stdout: < 50 nM
